- Tested on: MAPKAPK5
- testSettings: concentration: 1 μM, replicates: in singlicate; n = 1;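 also: KINOMEscan kinase panel screen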
observationType: %Inh (%)
# output: bare number, implied unit %

Query block: Any idea what its %Inh is? The compound is COc1ccccc1-c1ccc2c(NC(=O)C3CC3)n[nH]c2n1 [SB-711239]
Result block: 2

Query block: Would you kindly share the measured %Inh for CN(C)CCN(C)C(=O)c1cc(-c2ccncc2)c(-c2ccc(Cl)c(O)c2)o1.Cl.Cl [SB-710397] ?
Result block: 0

Query block: Name the recorded %Inh for CCn1c(-c2ccccn2)nc2cnccc21 [SB-736398] .
Result block: 0

Query block: Value lookup for %Inh; key = COc1cccc(NC(=O)NC2CCN(c3ccnc(Nc4ccc(F)cc4)n3)C2)c1 (stereo not drawn) [GSK1379721]
Result block: 0

Query block: Which value of %Inh has been reported for Fc1cc(Cl)ccc1Nc1ccnc2cc(-c3ccc(CN4CCCCC4)o3)ccc12 [GW560116] in the records?
Result block: 0

Query block: Which %Inh is reported for this compound? CC(=O)Nc1nc2cnc(Nc3cc(NC(=O)c4cccc(CCC#N)c4)ccc3C)nc2s1
Result block: 3

Query block: Request the reported %Inh associated with Cl.NC(=O)c1cccc(Nc2nccc(Nc3ccc(Oc4cccc(Cl)c4)c(Cl)c3)n2)c1 [GW659008]
Result block: 0

Query block: State the recorded %Inh for this entry: COc1ccc2nc(-c3cccc(C)n3)nc(Nc3ccncc3)c2c1 [GSK204919]
Result block: 0

Query block: Please report the recorded %Inh for COc1ccc(Nc2nccc(NCCNC(=O)Nc3ccccc3F)n2)cc1 [GSK1379901] .
Result block: 0

---

For each record, write down the corresponding %Inh.
- Test system: TLK2
- testSettings: concentration: 1 μM, replicates: in singlicate; n = 1
Report the value in % with no unit label.

Query block: Please give the measured %Inh for this compound: C[C@@H]1CCCCN1c1cc(-c2ccc3c(N)n[nH]c3c2)nc(N)n1
Result block: 4

Query block: If you can, please state the reported %Inh value of CC(C)(C)c1ccc(C(=O)Nc2cn3cc(Cl)ccc3n2)cc1 .
Result block: 0

Query block: %Inh lookup needed for Cc1ccc(C(=O)Nc2ccc(Nc3ccnc4cc(-c5ccccn5)ccc34)cc2O)cc1.Cl , thanks.
Result block: 0

Query block: Need %Inh of Cc1cccc(-c2cc(Nc3ccncc3)c3ccccc3n2)n1 , thanks.
Result block: 0

Query block: Give the measured %Inh of COc1ccc(Nc2nccc(-c3cccc(NC(=O)c4cc5cc(F)ccc5[nH]4)c3)n2)cc1 .
Result block: 0

Query block: So what does the record say about %Inh for COc1cc(Nc2nccc(N3CCC(NC(=O)Nc4cc(C)ccc4C)C3)n2)cc(OC)c1OC (stereo not shown) ?
Result block: 0

Query block: So what does the record say about %Inh for O=C1NC(=O)C(N2CCc3ccccc32)=C1c1ccccc1Cl ?
Result block: 4

Query block: Can you look up the measured %Inh of COc1ccc(CNC(=O)NC2CCN(c3ccnc(Nc4cc(OC)c(OC)c(OC)c4)n3)C2)cc1 (stereo not shown) for me?
Result block: 0

Query block: // lookup %Inh for Cl.c1ccc(-c2n[nH]cc2-c2ccnc(-c3ccc(CN4CCOCC4)cc3)c2)nc1
Result block: 0

Query block: Dear colleague, I am looking for the recorded %Inh of the following compound: Cc1cc(NCC(c2ccccc2)c2ccccc2)nc(NCc2ccc(C(F)(F)F)cc2)n1
Result block: 0

Query block: Quick check: %Inh of O=C(Nc1ccccc1)Nc1cccc(Oc2ccc3nccn3n2)c1 ?
Result block: 0

Query block: Could you share which %Inh value was measured for Nc1nc(-c2nccs2)c(-c2ccnc3ccccc23)s1 ?
Result block: 0

Query block: What %Inh value was documented for this compound, Cc1ccccc1-n1cnc2c(N)ncnc21 ?
Result block: 7

Query block: Which %Inh value belongs to Cc1cccc(-c2nc(C)cc(Nc3ccncc3)n2)n1 ?
Result block: 0

Query block: Name the recorded %Inh for Cc1cc(-c2ccc3c(c2)CC[C@@H](N[C@@H](C)c2ccccc2)C3)cnc1N.Cl .
Result block: 0

Query block: Returns the measured %Inh for the input compound. Input: Cn1ccc2ncnc(Oc3ccc(NC(=O)Nc4ccccc4)cc3)c21
Result block: 0

Query block: Recorded %Inh of Cc1nnc(-c2ccc3occ(-c4ccc(S(C)=O)cc4)c3c2)[nH]1 (stereo not shown) , please.
Result block: 0

Query block: GET /values?readout=%Inh&item= Fc1cccc(COc2nnc(-c3ccc4c(c3)CCO4)o2)c1
Result block: 0

Query block: Bench note: what %Inh did COc1ccc2nc(-c3cccc(C)n3)nc(Nc3ccncc3)c2c1 show?
Result block: 0

Query block: // query %Inh value for entry COc1ccc(C2=C(Nc3cccc(C(=O)O)c3)C(=O)NC2=O)cc1
Result block: 0

Query block: Requested field: %Inh. Item: Cl.Oc1ccc(-c2nc(-c3ccccc3)[nH]c2-c2ccncc2)cc1
Result block: 0

Query block: What does the data say about its %Inh? Entry: COc1ccc(Nc2nccc(NCCNC(=O)Nc3ccccc3F)n2)cc1
Result block: 0

Query block: Tell me the measured %Inh of Cc1c(O)cccc1Nc1ccnc2ccc(C(F)(F)F)cc12.Cl , please.
Result block: 0

Query block: Look at this compound and give its reported %Inh. Fc1cc(Cl)ccc1Nc1ccnc2cc(I)ccc12
Result block: 0

Query block: Field request: %Inh | item: O=C(Nc1n[nH]c2nc(-c3nccs3)c(Br)cc12)C1CCCC1
Result block: 0

Query block: What measured %Inh goes with COc1cc2ncnc(Nc3ccc4nc(-c5ccccc5)[nH]c4c3)c2cc1OC.Cl ?
Result block: 0

Query block: For the compound CN(C)CCN(C)C(=O)c1cc(-c2ccncc2)c(-c2ccc(Cl)c(O)c2)o1.Cl.Cl , what %Inh is on record?
Result block: 0

Query block: Please report the recorded %Inh for Cc1cccc(-c2nc(-c3ccc(S(C)(=O)=O)cc3)sc2-c2ccnc(NCCc3ccccc3)c2)c1 .
Result block: 4

Query block: What measured %Inh goes with COc1cc2nccc(Nc3ccc(NC(=O)c4ccc(C)cc4)c(O)c3)c2cc1OC.Cl ?
Result block: 0

Query block: Param item = COc1cc2ncn(-c3cc(OCC4CCCO4)c(C(N)=O)s3)c2cc1OC (stereo not shown) ; retrieve measured %Inh.
Result block: 11

Query block: Consider the compound COc1ccccc1CNC(=O)c1cc(C(=O)c2ccccc2C)c[nH]1 and give its measured %Inh.
Result block: 0

Query block: Endpoint output: %Inh of Clc1cc(Cl)cc(Nc2ccnc(Nc3cc(Cl)cc(Cl)c3)n2)c1 . Value?
Result block: 3

Query block: Can you share its %Inh? I mean this compound: CS(=O)(=O)c1ccc(-c2c(-c3ncn[nH]3)sc(N3CCOCC3)c2C#N)cc1
Result block: 0

Query block: Value lookup for %Inh; key = Cn1ccc2ncnc(Oc3ccc(Nc4nc5ccccc5[nH]4)cc3)c21
Result block: 0

Query block: Item CC(C)(C)c1ccc(C(=O)Nc2cn3cc(-c4cccnc4)ccc3n2)cc1 has what recorded %Inh?
Result block: 5

Query block: Form field: reported %Inh of O=C(Nc1n[nH]c2cc(-c3cccc(F)c3F)ccc12)C1CC1
Result block: 5

Query block: Quick one: %Inh of COc1ccccc1-c1ccc2c(NC(=O)C3CC3)n[nH]c2n1 ?
Result block: 2

---

- Tested on: CLK3
- testSettings: concentration: 1 μM, replicates: in singlicate; n = 1
observationType: %Inh (%)
Give just the number in %; leave the unit off.

Query block: Requested read-out: %Inh. Entry: Cl.O=C(Nc1cccc(-c2nn3ncccc3c2-c2ccnc(Nc3cccnc3)n2)c1)c1c(F)cccc1F
Result block: 0

Query block: Endpoint output: %Inh of COc1ccc2nc(-c3cccc(C)n3)nc(Nc3ccncc3)c2c1 . Value?
Result block: 2

Query block: Please report the recorded %Inh for CC(C)(C)c1ccc(C(=O)Nc2cn3cc(-c4cccnc4)ccc3n2)cc1 .
Result block: 32

Query block: %Inh lookup needed for Cc1cccc(-c2nc(-c3ccc(S(C)(=O)=O)cc3)sc2-c2ccnc(NCCc3ccccc3)c2)c1 , thanks.
Result block: 12

Query block: Requested field: %Inh. Item: COc1ccc(C2=C(Nc3cccc(C(=O)O)c3)C(=O)NC2=O)cc1
Result block: 8

Query block: // returns reported %Inh for input Cc1csc(-c2nc(Nc3ccncc3)c3ccccc3n2)n1
Result block: 35

Query block: # input compound: CS(=O)(=O)c1ccc(-c2nc3n(c2-c2ccncc2)CCC3)cc1 ; wanted: its %Inh
Result block: 0

Query block: Any idea what %Inh was measured for Fc1cc(Cl)ccc1Nc1ccnc2cc(I)ccc12 ?
Result block: 5

Query block: # %Inh lookup, item O=C(Nc1n[nH]c2nc(-c3nccs3)c(Br)cc12)C1CC1
Result block: 11

Query block: Sample Cc1cc(N2Cc3ccccc3C2)nc(Nc2ccc(S(=O)(=O)N3CCOCC3)cc2)n1.Cl — what was its %Inh?
Result block: 1

Query block: What value of %Inh has been recorded for this entry: Cl.Oc1ccc(-c2nc(-c3ccccc3)[nH]c2-c2ccncc2)cc1
Result block: 0

Query block: Entry under review: Cc1cccc(-c2nc(Nc3ccc4[nH]ncc4c3)c3ccccc3n2)n1 . Reported %Inh?
Result block: 4

Query block: %Inh lookup needed for Nc1nc(-c2nccs2)c(-c2ccnc3ccccc23)s1 , thanks.
Result block: 0

Query block: Consider the compound shown here: CCn1c(-c2cccnc2O)nc2cnccc21 What is its recorded %Inh?
Result block: 0

Query block: Looking for the measured %Inh of Cl.c1ccc(-c2n[nH]cc2-c2ccnc(-c3ccc(CN4CCOCC4)cc3)c2)nc1 , can you help?
Result block: 0

Query block: State the recorded %Inh for this entry: COc1cc2ncnc(Nc3ccc4nc(-c5ccccc5)[nH]c4c3)c2cc1OC.Cl
Result block: 12

Query block: Would you kindly share the measured %Inh for C[C@@H]1CCCCN1c1cc(-c2ccc3c(N)n[nH]c3c2)nc(N)n1 ?
Result block: 0

Query block: %Inh for COc1cccc(-c2cc(-c3c[nH]nc3-c3ccccn3)ccn2)c1 ?
Result block: 0

Query block: Can you share its %Inh? I mean this compound: CC(=O)Nc1nc2cnc(Nc3cc(NC(=O)c4cccc(CCC#N)c4)ccc3C)nc2s1
Result block: 0

Entry source: paper PMC5540273
